assayed_target: T1, His-tagged CEACAM1 (human, UniProt P13688 35-428)
T1 construct: 45 kDa SPR analyte; also called CEACAM1-HIS; CEACAM1 analyte
T1 sequence: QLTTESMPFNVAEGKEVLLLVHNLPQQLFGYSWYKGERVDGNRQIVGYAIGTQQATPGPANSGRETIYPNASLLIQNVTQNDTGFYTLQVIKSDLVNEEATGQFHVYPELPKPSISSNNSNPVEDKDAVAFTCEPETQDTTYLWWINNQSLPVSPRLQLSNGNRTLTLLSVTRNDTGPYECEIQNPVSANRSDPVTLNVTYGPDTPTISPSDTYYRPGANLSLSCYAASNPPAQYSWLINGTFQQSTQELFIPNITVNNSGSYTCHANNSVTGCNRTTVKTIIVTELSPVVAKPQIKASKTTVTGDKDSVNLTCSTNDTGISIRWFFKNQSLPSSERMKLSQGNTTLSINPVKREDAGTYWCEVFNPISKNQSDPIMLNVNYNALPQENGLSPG
run_description: SPR single-cycle, supernatant IgG captured
observed_property: kon (M⁻¹ s⁻¹)
Lab book: enter the figure in M⁻¹ s⁻¹, no units written.

Field: example entries. Status: answers known.
binder	kon / M⁻¹ s⁻¹
VH1/Vκ8 S29A (antibody, IgG4, V domains shown, IgG4 (S241P), kappa; also called Parent; Parent (VH1/Vκ8 S29A)) VH: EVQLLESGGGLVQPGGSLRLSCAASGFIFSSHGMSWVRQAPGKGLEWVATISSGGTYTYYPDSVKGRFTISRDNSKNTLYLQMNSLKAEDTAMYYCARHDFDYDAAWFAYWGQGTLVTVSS VL: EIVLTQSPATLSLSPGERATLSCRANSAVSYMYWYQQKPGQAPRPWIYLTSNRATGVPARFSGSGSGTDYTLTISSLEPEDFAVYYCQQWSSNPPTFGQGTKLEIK	94000
8H3_9B3/CP08E05 (antibody, IgG4, V domains shown, IgG4 (S241P), kappa) VH: EVQLLESGGGLVQPGGSLRLSCAASGFTFNAHAISWVRQAPGKGLEWVATISSGGTYTYYPDSVKGRFTISRDNSKNTLYLQMNSLKAEDTAMYYCARHDFDYFPYWFAHWGQGTLVTVSS VL: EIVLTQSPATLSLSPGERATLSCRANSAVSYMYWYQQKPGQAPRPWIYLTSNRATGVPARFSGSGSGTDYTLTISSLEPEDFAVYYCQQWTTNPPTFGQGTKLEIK	93000
9B3_9E5/CP08E05 (antibody, IgG4, V domains shown, IgG4 (S241P), kappa) VH: EVQLLESGGGLVQPGGSLRLSCAASGFTFNAHAISWVRQAPGKGLEWVATISSGGTYTYYPDSVKGRFTISRDNSKNTLYLQMNSLKAEDTAMYYCARHGFDYDAAWFAYWGQGTLVTVSS VL: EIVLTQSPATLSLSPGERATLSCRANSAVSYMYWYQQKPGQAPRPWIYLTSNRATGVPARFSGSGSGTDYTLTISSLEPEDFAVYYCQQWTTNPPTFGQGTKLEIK	120000
8H3_9E5/CP08F05 (antibody, IgG4, V domains shown, IgG4 (S241P), kappa) VH: EVQLLESGGGLVQPGGSLRLSCAASGFIFSSHGMSWVRQAPGKGLEWVATISSGGTYTYYPDSVKGRFTISRDNSKNTLYLQMNSLKAEDTAMYYCARHGFDYFPYWFAHWGQGTLVTVSS VL: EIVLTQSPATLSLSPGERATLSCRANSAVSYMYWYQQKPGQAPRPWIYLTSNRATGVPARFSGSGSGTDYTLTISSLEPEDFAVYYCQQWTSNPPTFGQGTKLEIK	77000

Field: next binder
## Input Query: kon; subject: 9B3_9E5/CP08F05 (antibody, IgG4, V domains shown, IgG4 (S241P), kappa) VH: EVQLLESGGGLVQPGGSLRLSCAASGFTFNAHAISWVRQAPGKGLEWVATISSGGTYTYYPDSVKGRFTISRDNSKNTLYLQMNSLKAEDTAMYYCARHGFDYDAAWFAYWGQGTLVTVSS VL: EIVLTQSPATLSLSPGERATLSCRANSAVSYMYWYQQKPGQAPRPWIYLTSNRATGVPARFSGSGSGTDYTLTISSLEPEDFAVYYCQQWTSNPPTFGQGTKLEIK
## Output 130000
